Assayed target: Histamine H2 receptor (Rattus norvegicus)
Sequence (P25102 whole entry): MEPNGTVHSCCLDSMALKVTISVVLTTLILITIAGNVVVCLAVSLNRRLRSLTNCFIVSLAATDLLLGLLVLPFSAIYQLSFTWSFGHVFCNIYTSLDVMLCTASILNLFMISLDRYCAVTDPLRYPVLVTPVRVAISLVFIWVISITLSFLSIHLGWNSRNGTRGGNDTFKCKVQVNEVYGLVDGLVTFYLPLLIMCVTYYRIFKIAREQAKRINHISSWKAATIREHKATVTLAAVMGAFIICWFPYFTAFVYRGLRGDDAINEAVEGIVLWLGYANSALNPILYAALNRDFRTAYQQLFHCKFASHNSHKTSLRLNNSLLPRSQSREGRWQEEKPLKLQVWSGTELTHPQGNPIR
Endpoint label: Ki

Ask: Provide the reported Ki (system: Histamine H2 receptor (Rattus norvegicus)) for N#CN=C(NCCCCCCCCNc1ccc([N+](=O)[O-])c2n[o+][n-]c12)NCCCOc1cccc(CN2CCCCC2)c1
Result: < 100 nM

----------
Assayed target: Histamine H2 receptor (Homo sapiens)
Sequence (P25021 whole entry): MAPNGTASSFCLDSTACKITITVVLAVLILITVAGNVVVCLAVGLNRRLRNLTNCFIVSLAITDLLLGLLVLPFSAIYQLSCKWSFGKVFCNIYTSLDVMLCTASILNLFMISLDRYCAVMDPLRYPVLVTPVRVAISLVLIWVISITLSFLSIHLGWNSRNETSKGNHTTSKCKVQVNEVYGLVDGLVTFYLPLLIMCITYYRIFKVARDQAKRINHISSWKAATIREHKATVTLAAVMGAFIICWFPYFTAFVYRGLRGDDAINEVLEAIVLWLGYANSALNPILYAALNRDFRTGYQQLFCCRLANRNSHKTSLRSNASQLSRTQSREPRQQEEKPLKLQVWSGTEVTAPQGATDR
Experiment: Binding affinity to human H2R expressing Sf9 cells incubated for 60 mins by microbeta scintillation counter method
Endpoint label: pKd
FYI, pKd means -log10 of a concentration in mol per litre.

Ask: Tell me pKd reported for [3H]CC([3H])C(=O)NCCCCCCNc1c(NCCCOc2cccc(CN3CCCCC3)c2)c(=O)c1=O (stereo unspecified)
Result: 7.51
